Test: in vitro
Settings: human, hela cells, % viability
EXPERIMENTAL READOUT: viability at 28.5 h, 10 µM (%)
Answers are plain numbers, in %.

Worked set:
Cc1cccnc1NC(=O)c1ccc(NCCc2ccccc2)c([N+](=O)[O-])c1 [CBK269543]	96.1
CCN(CCO)c1ccc(Nc2cc(-c3ccsc3)ncn2)cc1 [CBK091000]	89.5
COc1ccc(NC(=O)CC2SC(=N)NC2=O)c([N+](=O)[O-])c1 (stereo not shown) [CBK265334]	95.9
O=C(CC(C(=O)O)N1CCOCC1)Nc1ccc(Cl)cc1 (stereo not shown) [CBK267086]	105
CC(C)NC(=O)CN1CCN(c2ccc(C#N)cc2Cl)CC1 [CBK305470]	88.3

Report viability at 28.5 h, 10 µM for each item below.
1. COc1ccc(C(=O)Nc2nc3c(OC)ccc(C)c3s2)cc1 [CBK287615]
2. OC(CNc1nccnc1-c1ccccc1Cl)COc1ccccc1 (stereo not shown) [CBK037085]
3. O=C(Nc1cc(Cl)ccc1C(=O)NC1CCC(O)CC1)c1cccs1 (stereo not shown) [CBK306186]
4. CN(CCO)S(=O)(=O)c1ccccc1[N+](=O)[O-] [CBK261457]

1. 110
2. 92
3. 89.2
4. 102

Report viability at 28.5 h, 10 µM for each item below.
1. CCCCN(Cc1ccccc1)C(=O)[C@H]1CCCC[C@H]1C(=O)O [CBK286596]
2. CN1CCN(C(=O)c2ccc(-c3cnc4[nH]c(=O)n(Cc5ccncc5)c4n3)cc2)CC1 [CBK064679]
3. O=C1NCCNC(=O)C2(CCCCOc3ccccc31)CCN(C(=O)c1ccnnc1)CC2 [CBK292105]

1: 85.3; 2: 101; 3: 107

Report viability at 28.5 h, 10 µM for each item below.
1. O=C(O)Cn1nnc(-c2ccc(C(=O)O)cc2)n1 [CBK267926]
2. Cc1ccc(OCC(O)CN2CCC(C(N)=O)CC2)cc1C (stereo not shown) [CBK057100]
3. O=C(NCc1cccs1)N1CCCN(Cc2ccc(F)cc2)CC1 [CBK306294]
4. O=C(O)CN1C(=O)c2ccc(C(=O)c3ccc4c(c3)C(=O)N(CC(=O)O)C4=O)cc2C1=O [CBK262166]
5. COc1ccc(C2(O)CCN(CC(O)c3ccc4c(c3)CCC4)CC2)cc1 (stereo not shown) [CBK286334]
6. O=C(O)CCCC(=O)N1CCN2C(=O)c3cc(Br)ccc3NC(=O)[C@@H]2C1 [CBK289581]

85
105
97.4
82.3
95.9
100

Using the record for CC(O)CNCc1ccccc1OCc1ccccc1F (stereo not shown) [CBK270278C] , report its viability at 28.5 h, 10 µM. 93.2
